target: human insulin (HI) (Homo sapiens, UniProt P01308); construct: HI (Actrapid); assay: Thioflavin-T fibrillation assay with insulin ([…] HCl, pH […] °C, […] h)
Sequence (P01308 25-54): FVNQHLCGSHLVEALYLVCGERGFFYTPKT
Sequence (P01308 90-110): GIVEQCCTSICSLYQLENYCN
pEC50: −log10 of the molar value.
Measured endpoint: pEC50

- Smiles string: "COc1cc(/C=C/C(=O)CC(=O)/C=C/c2ccc(O)c(OC)c2)ccc1O"
  Tested system: "human insulin (HI) (Homo sapiens, UniProt P01308)"
  Experimental value: 4.36
